This collection of values is drawn from patent US5635514A.

Target: Human recombinant 5-lipoxygenase (Homo sapiens, UniProt P09917)
Sequence (P09917 whole entry): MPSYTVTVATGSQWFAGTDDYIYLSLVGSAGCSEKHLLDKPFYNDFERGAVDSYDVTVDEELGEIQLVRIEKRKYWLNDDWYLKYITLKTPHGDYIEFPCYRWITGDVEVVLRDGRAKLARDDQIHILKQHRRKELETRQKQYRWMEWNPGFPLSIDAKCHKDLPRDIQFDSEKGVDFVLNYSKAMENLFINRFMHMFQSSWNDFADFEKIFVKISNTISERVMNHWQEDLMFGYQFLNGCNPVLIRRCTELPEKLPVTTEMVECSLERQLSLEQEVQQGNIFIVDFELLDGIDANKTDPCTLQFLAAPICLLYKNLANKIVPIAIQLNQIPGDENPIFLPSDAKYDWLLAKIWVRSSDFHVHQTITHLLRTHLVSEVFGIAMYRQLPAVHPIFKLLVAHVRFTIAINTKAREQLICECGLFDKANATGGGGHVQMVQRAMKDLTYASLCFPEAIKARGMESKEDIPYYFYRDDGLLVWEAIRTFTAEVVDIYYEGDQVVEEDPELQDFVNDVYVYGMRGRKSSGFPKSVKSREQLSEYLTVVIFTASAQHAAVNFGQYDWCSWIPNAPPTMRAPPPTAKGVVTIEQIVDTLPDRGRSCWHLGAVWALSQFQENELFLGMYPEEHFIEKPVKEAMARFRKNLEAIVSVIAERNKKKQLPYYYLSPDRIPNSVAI
Test: Recombinant 5-Lipoxygenase Inhibition Assay
Conditions: 25° C., 8 minutes, absorbance at 240 nm
Method: The compounds of the present invention were evaluated with respect to 5-lipoxygenase inhibition according to the Recombinant 5-Lipoxygenase Inhibition Assay described below. Human 5-lipoxygenase expressed in E. coli as a soluble protein was prepared in the manner described by M. Noguchi et al., "Expression of Human 5-Lipoxygenase cDNA in E. coli," FEBS Letters, Vol. 249, No. 2, 267-270 (1989), which is incorporated herein by reference. […]
pIC50: −log10 of the molar value.
metric: pIC50

The following compounds have reported results that may help.
{"columns": ["compound", "pIC50"],
 "data": [
  ["CC(C)(C)c1cc(SCCCn2ccc3ncnc-3c2)cc(C(C)(C)C)c1O", 6.24],
  ["CC(C)(C)c1cc(SCCCCn2ccc3ncnc-3c2)cc(C(C)(C)C)c1O [Compound 14, Hydrate]", 6.39],
  ["CC(C)(C)c1cc(SCCCn2cnc3ccncc32)cc(C(C)(C)C)c1O", 6.31],
  ["CC(C)(C)c1cc(SCC(O)Cn2ccc3ncnc-3c2)cc(C(C)(C)C)c1O (racemic) [Compound 27, Hydrate]", 5.96],
  ["CC(C)(C)c1cc(SCCCn2ccc3ccccc32)cc(C(C)(C)C)c1O [Compound 24, Hydrate]", 6.32],
  ["CC(C)(C)c1cc(SCCCn2cnc3cccnc32)cc(C(C)(C)C)c1O [Compound 18, Hydrate]", 6.49],
  ["CC(C)(C)c1cc(SCCn2ccc3ncnc-3c2)cc(C(C)(C)C)c1O [Compound 8, Hydrate]", 5.35],
  ["CC(C)(C)c1cc(SCCSc2nc3ccccc3o2)cc(C(C)(C)C)c1O [Compound 26, Hydrate]", 6.03],
  ["CC(C)(C)c1cc(SCc2nc3cccnc3[nH]2)cc(C(C)(C)C)c1O", 5.74],
  ["CC(C)(C)c1cc(SCCCn2cnc3cnccc32)cc(C(C)(C)C)c1O", 6.47]
]}

I. CC(C)(C)c1cc(SCCCn2cnc3ncccc32)cc(C(C)(C)C)c1O [Compound 19, Hydrate]
II. CC(C)(C)c1cc(SCCCn2cnc3ccccc32)cc(C(C)(C)C)c1O
// pick min by pIC50: I , II State the label of the item chosen.
I
